The origin of these recorded values is the supplement of paper PMC12042874.

Experiment: amyloid nucleation score (Sup35N fusion, yeast selection) (log enrichment); library NNK2; higher = more nucleation; inactive = no reads after selection;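 further: zero at mode of non-aggregating sequences after 7 days selection at 30°C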
Decision: amyloid nucleation score >= -0.2 yields criterion met, all other cases yield criterion not met.

API: above_or_equal(metric=amyloid nucleation score, cutoff=-0.2) for item VYIVHVPSQFWL
criterion met

Threshold query (amyloid nucleation score >= -0.2) on DVKSAWRLGVGCLTVRAIRE
criterion met

Please check the record VSMEKVRSDGMDRFASGFAA and state if its amyloid nucleation score is at or above -0.2.
criterion met

Decide: amyloid nucleation score of ILYGCLLPCLHLRGHPLVLK >= -0.2?
criterion met

hey, is amyloid nucleation score for this one >= -0.2? WKFSYDFSASASGHHALVNK
criterion met

Threshold query (amyloid nucleation score >= -0.2) on YEFCVAFFDRNNCNREP
criterion not met

I'd appreciate it if you could say whether FFCFFKIYFWMRAAGTSLNR has amyloid nucleation score at least equal to -0.2.
criterion not met

Reported amyloid nucleation score at or above -0.2? GWRKSLNWCVYVGEGASIVV
criterion met

Is amyloid nucleation score at least -0.2? Consider LSHMFVTALIVIEKFCLTAL
criterion met

Given the entry EHLCPYF , answer whether its amyloid nucleation score meets or surpasses -0.2.
criterion met

Has CNTRRLISMRI a recorded amyloid nucleation score greater than or equal to -0.2?
criterion not met

Determine whether measured amyloid nucleation score meets or exceeds -0.2 for WSPLSLVTIELLVQSVIDPF
criterion not met

Would you say PNRKSYLAYNMDSPT shows amyloid nucleation score at minimum -0.2?
criterion not met

Would you say NGQFGTSHGMVGTGVSLRG shows amyloid nucleation score at minimum -0.2?
criterion met

Item YYVSSVLWIRYYQGNRTRSW with amyloid nucleation score of -0.2 or above?
criterion not met

Check this substance for amyloid nucleation score at or above -0.2: TLFLRMVSLHFKSVVLWNWF
criterion met
